species on record: Homo sapiens; experiment: Selectivity index, ratio of IC50 for recombinant human MAO-A to IC50 for recombinant human MAO-B
The reader will find reported Ratio IC50 values listed item by item below.

Here are 6 compounds together with their reported answers.
COc1cccc(COc2ccc(CN)cc2)c1 : > 170
NCc1ccc(OCc2ccccc2C(F)(F)F)cc1 : > 32
NCc1ccc(OCc2cccc(C(F)(F)F)c2)cc1 : > 250
NCc1ccc(OCc2ccc(F)cc2)cc1 : > 220
NCc1ccc(OCc2ccc(C(F)(F)F)cc2)cc1 : > 730
COc1ccc(COc2ccc(CN)cc2)cc1 : > 350

# context switch: different compound, same Ratio IC50
## Input Which Ratio IC50 is reported for this compound? NC(=O)c1ccc(OCc2cccc(F)c2)cc1
## Output > 65

---

target: Amine oxidase [flavin-containing] A (Homo sapiens); test: Inhibition of recombinant human MAO-A using p-tyramine as substrate preincubated for 15 mins followed by substrate addition measured after 20 mins by amplex red reagent based spectrophotometric assay
Catalogue of compounds with associated IC50

## Input Give its IC50 value. Item: NCCc1ccc(OCc2ccccc2F)cc1
## Output > 10 µM

## Input Also NC(=O)c1ccc(OCc2ccc(F)cc2)cc1 ?
## Output > 100 µM

## Input Next record, please: NCCc1ccc(-c2cccc(Cl)c2)cc1
## Output > 10 µM

## Input Subsequent entry: COc1cccc(COc2ccc(CCN)cc2)c1
## Output > 10 µM

## Input // same read-out, input: NCc1ccc(OCc2ccc(F)cc2)cc1
## Output > 100 µM

## Input Also need NCCc1ccc(-c2cccc(F)c2)cc1 , thanks.
## Output > 10 µM

## Input What do we get for COc1cccc(-c2ccc(CCN)cc2)c1 ?
## Output > 10 µM

## Input Also, COc1ccc(COc2ccc(CN)cc2)cc1 please.
## Output > 100 µM

## Input Consider next the compound NCCc1ccc(OCc2cccc(C(F)(F)F)c2)cc1 in the same way.
## Output > 100 µM

## Input Moving on to COc1cccc(COc2ccc(CN)cc2)c1
## Output > 30 µM

## Input Record: NCc1ccc(OCc2ccccc2F)cc1
## Output > 100 µM

## Input Another compound: NCc1ccc(OCc2ccccc2C(F)(F)F)cc1
## Output > 100 µM

## Input Next: NCCc1ccc(-c2ccccc2F)cc1
## Output > 10 µM

## Input Next entry: NCCc1ccc(OCc2cccc(F)c2)cc1
## Output > 100 µM

---

Biological target: Amine oxidase [flavin-containing] B (Homo sapiens, UniProt P27338)
Sequence (P27338 whole entry): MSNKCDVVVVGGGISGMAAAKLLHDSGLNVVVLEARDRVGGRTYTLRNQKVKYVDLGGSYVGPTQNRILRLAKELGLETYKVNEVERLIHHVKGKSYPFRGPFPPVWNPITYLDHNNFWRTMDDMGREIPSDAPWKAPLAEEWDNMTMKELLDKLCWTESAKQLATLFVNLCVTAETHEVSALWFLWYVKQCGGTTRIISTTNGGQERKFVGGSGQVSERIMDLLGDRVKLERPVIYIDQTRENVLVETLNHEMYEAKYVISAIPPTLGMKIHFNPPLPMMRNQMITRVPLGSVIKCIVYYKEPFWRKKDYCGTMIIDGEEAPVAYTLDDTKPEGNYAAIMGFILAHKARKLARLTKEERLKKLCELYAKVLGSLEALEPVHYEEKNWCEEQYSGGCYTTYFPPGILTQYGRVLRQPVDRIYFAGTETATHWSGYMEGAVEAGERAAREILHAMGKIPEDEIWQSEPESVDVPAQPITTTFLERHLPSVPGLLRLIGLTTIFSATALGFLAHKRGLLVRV
Test: Inhibition of recombinant human MAO-B using benzylamine as substrate preincubated for 15 mins followed by substrate addition measured after 20 mins by amplex red reagent based spectrophotometric assay
readout label: IC50 (nM)

Illustrative cases are given below, each with its answer.
NCCc1ccc(OCc2ccccc2C(F)(F)F)cc1 : 1800
NCc1ccc(OCc2ccccc2C(F)(F)F)cc1 : 3150
NCc1ccc(OCc2ccccc2F)cc1 : 1460
CC(=O)N[C@H]1CC(=O)N(c2ccc(OCc3cccc(F)c3)cc2)C1 : 16
COc1ccc(COc2ccc(CN)cc2)cc1 : 283
COc1ccc(-c2ccc(CCN)cc2)cc1 : 5760
NCCc1ccc(OCc2cccc(C(F)(F)F)c2)cc1 : 110
NCCc1ccc(OCc2ccc(Cl)cc2)cc1 : 59
COc1cccc(COc2ccc(CCN)cc2)c1 : 305

[P] Nc1ccc(OCc2ccc(C(F)(F)F)cc2)cc1
[Q] NCc1ccc(OCc2cccc(F)c2)cc1
[R] NCc1ccc(OCc2ccccc2)cc1
## Input Descending sort on IC50 required. To answer, arrange all of the labels according to the requested order.
## Output R, Q, P

---

species on record: Homo sapiens; assay: Selectivity index, ratio of IC50 for recombinant human MAO-A to IC50 for recombinant human MAO-B
readout label: Ratio IC50

NCCc1ccc(OCc2ccc(F)cc2)cc1 : > 910
NCCc1ccc(-c2ccc(F)cc2)cc1 : > 1.5

## Input Which value of Ratio IC50 has been reported for NCc1ccc(OCc2cccc(F)c2)cc1 in the records?
## Output > 100

## Input Thanks! And Nc1ccc(OCc2ccc(F)cc2)cc1 ?
## Output > 30

## Input How about this compound: Nc1ccc(OCc2cccc(F)c2)cc1
## Output > 40

## Input Now try COc1cccc(-c2ccc(CCN)cc2)c1 .
## Output > 1.9

## Input Could you do the same for Nc1ccc(OCc2ccc(C(F)(F)F)cc2)cc1 , please?
## Output > 240

## Input Also NCCc1ccc(-c2cccc(Cl)c2)cc1 ?
## Output > 4.7

## Input Please do the same for NC(=O)c1ccc(OCc2ccc(C(F)(F)F)cc2)cc1 as well.
## Output > 150

## Input And NCCc1ccc(OCc2cccc(F)c2)cc1 ?
## Output > 510

---

# Lookup of reported IC50 keyed by entry
target: Amine oxidase [flavin-containing] A (Homo sapiens, UniProt P21397); assay: Inhibition of recombinant human MAO-A using p-tyramine as substrate preincubated for 15 mins followed by substrate addition measured after 20 mins by amplex red reagent based spectrophotometric assay
Sequence (P21397 whole entry): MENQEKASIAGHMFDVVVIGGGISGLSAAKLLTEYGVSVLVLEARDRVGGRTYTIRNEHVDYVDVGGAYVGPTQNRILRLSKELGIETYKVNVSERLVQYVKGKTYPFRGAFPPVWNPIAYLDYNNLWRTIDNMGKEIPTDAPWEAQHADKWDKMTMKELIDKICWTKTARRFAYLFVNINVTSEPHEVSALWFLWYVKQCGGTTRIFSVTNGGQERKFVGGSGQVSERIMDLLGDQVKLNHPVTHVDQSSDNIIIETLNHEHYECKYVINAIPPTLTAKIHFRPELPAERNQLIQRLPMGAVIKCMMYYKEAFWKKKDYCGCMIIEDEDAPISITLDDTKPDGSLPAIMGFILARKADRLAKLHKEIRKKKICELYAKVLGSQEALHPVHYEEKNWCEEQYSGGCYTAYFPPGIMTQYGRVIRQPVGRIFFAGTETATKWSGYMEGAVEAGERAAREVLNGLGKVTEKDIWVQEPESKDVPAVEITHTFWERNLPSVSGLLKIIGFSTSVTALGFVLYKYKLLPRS

Solved cases below.
Nc1ccc(OCc2ccc(F)cc2)cc1 : > 100 µM
NCCc1ccc(-c2ccc(Cl)cc2)cc1 : > 10 µM
NCc1ccc(OCc2cccc(C(F)(F)F)c2)cc1 : > 100 µM
NC(=O)c1ccc(OCc2ccccc2F)cc1 : > 100 µM
NCCc1ccc(-c2ccc(C(F)(F)F)cc2)cc1 : > 10 µM

## Input Can you look up the measured IC50 of NCCc1ccc(OCc2ccccc2Cl)cc1 for me?
## Output > 10 µM

## Input Another compound to look at: NCCc1ccc(-c2cccc(C(F)(F)F)c2)cc1
## Output > 10 µM

## Input Also, NCc1ccc(OCc2ccccc2)cc1 please.
## Output > 100 µM

## Input Could you do the same for NCCc1ccc(OCc2ccc(Cl)cc2)cc1 , please?
## Output > 100 µM

## Input Entry NC(=O)c1ccc(OCc2cccc(C(F)(F)F)c2)cc1 please
## Output > 100 µM

## Input For Nc1ccc(OCc2cccc(C(F)(F)F)c2)cc1 then?
## Output > 100 µM

## Input Also, NCCc1ccc(OCc2ccc(F)cc2)cc1 please.
## Output > 100 µM

## Input Also check COc1ccc(-c2ccc(CCN)cc2)cc1
## Output > 10 µM

## Input Please do the same for NCCc1ccc(OCc2ccccc2C(F)(F)F)cc1 as well.
## Output > 100 µM

---

IC50 reference
target: Amine oxidase [flavin-containing] A (Homo sapiens, UniProt P21397); assay: Inhibition of recombinant human MAO-A using p-tyramine as substrate preincubated for 15 mins followed by substrate addition measured after 20 mins by amplex red reagent based spectrophotometric assay

COc1ccc(CN[C@@H](C)C(N)=O)cc1 : > 10 µM
NCc1ccc(OCc2cccc(Cl)c2)cc1 : > 100 µM
NCc1ccc(OCc2ccc(Cl)cc2)cc1 : > 30 µM
NCCc1ccc(OCc2cccc(Cl)c2)cc1 : > 100 µM
NC(=O)c1ccc(OCc2ccc(C(F)(F)F)cc2)cc1 : > 100 µM

## Input // IC50 lookup, key: Cl.NCCc1ccc(OCc2ccc(C(F)(F)F)cc2)cc1
## Output > 100 µM

## Input Next record, please: Nc1ccc(OCc2ccccc2F)cc1
## Output > 30 µM

## Input Another compound to look at: NC(=O)c1ccc(OCc2ccccc2C(F)(F)F)cc1
## Output > 100 µM

## Input Check NCc1ccc(OCc2ccc(C(F)(F)F)cc2)cc1 too.
## Output > 100 µM

## Input Again, but for Nc1ccc(OCc2cccc(F)c2)cc1
## Output > 100 µM

---

Molecular target: Amine oxidase [flavin-containing] B (Homo sapiens)
Sequence (P27338 whole entry): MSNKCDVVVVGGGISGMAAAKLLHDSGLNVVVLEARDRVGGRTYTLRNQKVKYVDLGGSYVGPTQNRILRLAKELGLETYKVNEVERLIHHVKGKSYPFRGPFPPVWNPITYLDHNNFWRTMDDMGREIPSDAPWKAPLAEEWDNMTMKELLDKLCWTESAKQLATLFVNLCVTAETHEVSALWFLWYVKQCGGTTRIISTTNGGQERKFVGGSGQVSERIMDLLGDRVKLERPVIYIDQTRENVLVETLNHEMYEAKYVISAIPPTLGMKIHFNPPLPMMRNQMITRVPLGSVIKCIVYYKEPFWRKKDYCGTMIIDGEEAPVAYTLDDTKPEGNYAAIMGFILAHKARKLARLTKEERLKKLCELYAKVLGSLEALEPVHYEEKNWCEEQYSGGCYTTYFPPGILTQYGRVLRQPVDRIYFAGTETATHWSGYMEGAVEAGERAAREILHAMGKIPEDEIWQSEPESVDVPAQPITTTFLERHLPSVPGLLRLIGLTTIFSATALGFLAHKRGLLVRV
Test: Inhibition of recombinant human MAO-B using benzylamine as substrate preincubated for 15 mins followed by substrate addition measured after 20 mins by amplex red reagent based spectrophotometric assay
pIC50: −log10 of the molar value.
readout label: pIC50

Use the examples below as a reference point.
NCCc1ccc(OCc2ccc(F)cc2)cc1 : 6.96
Nc1ccc(OCc2cccc(C(F)(F)F)c2)cc1 : 5.82
NCCc1ccc(OCc2cccc(F)c2)cc1 : 6.71

[I] NCc1ccc(OCc2ccc(Cl)cc2)cc1
[II] Nc1ccc(OCc2cccc(F)c2)cc1
[III] NCc1ccc(OCc2ccc(C(F)(F)F)cc2)cc1
[IV] NC(=O)c1ccc(OCc2cccc(C(F)(F)F)c2)cc1
## Input // smallest pIC50 at index 0, largest at the end Put the labels in the requested order and write them down.
## Output II, IV, I, III
(II: 5.61, IV: 5.96, I: 6.36, III: 6.87)

[P] NC(=O)c1ccc(OCc2ccccc2C(F)(F)F)cc1
[Q] NC(=O)c1ccc(OCc2ccc(C(F)(F)F)cc2)cc1
## Input Which has the smaller recorded pIC50, P or Q ? I would appreciate it if you answered with the label of your choice.
## Output P

[A] COc1cccc(COc2ccc(CN)cc2)c1
[B] NC(=O)c1ccc(OCc2ccccc2F)cc1
## Input Decide: A or B , by lowest recorded pIC50. Reply briefly: the label of your chosen item.
## Output B

[a] NC(=O)c1ccc(OCc2cccc(F)c2)cc1
[b] NCc1ccc(OCc2cccc(Cl)c2)cc1
## Input Which value of pIC50 is greater, the one for a or the one for b ? When you have decided, please share the label of that item.
## Output b

[I] Nc1ccc(OCc2ccc(F)cc2)cc1
[II] NCc1ccc(OCc2cccc(C(F)(F)F)c2)cc1
## Input Which entry shows the lesser value of pIC50 here, I or II ? Answer = label.
## Output I

[I] NC(=O)c1ccc(OCc2ccc(F)cc2)cc1
[II] NCc1ccc(OCc2ccc(F)cc2)cc1
## Input Smaller pIC50 value? Options are I and II Output the label that corresponds to your choice.
## Output II
